# target_or_system: PLA2 (phospholipase A2) (Rattus norvegicus, UniProt P14423)
# Construct: from tissue; host or cells: rat platelets
# Sequence (P14423 22-146): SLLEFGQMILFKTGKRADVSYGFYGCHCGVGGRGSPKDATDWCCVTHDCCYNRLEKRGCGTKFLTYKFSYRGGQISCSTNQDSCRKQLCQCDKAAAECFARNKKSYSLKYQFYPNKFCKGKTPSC
# experiment_description: Phospholipase A2 inhibitory activity (release of free fatty acid from 14C-labelled phosphatidylethanolamine)
# Type: biochemical
# recorded_conditions: PLA2 from rat platelets; CaCl2 (3 mM) in Tris-buffer (0.1 M, pH 7.4); 37 °C for 20 minutes
reported_metric: IC50 (µM)

[a] COc1c(C)c(OC)c(C(=O)Oc2c(C)c(C)c(C(=O)O)c(OC)c2C)c(C)c1Cc1c(C)c(C(=O)Oc2c(C)c(C)c(C(=O)O)c(OC)c2C)c(OC)c(C)c1OC [Compound 50]
[b] COc1ccc(S(=O)(=O)c2ccc(OC)c(C(=O)Oc3c(C)c(C)c(C(=O)Oc4c(C)c(C)c(C(=O)O)c(OC)c4C)c(OC)c3C)c2)cc1C(=O)Oc1c(C)c(C)c(C(=O)Oc2c(C)c(C)c(C(=O)O)c(OC)c2C)c(OC)c1C [Compound 104b]
Exercise: Of a and b , which shows the smaller IC50 value? Selection: enter the item's label.
Solution: b
(b: 0.05 µM, a: 4.6 µM)

----------
# target_or_system: PLA2 (phospholipase A2) (Rattus norvegicus, UniProt P14423)
# Construct: from tissue; host or cells: rat platelets
# experiment_description: Phospholipase A2 inhibitory activity (release of free fatty acid from 14C-labelled phosphatidylethanolamine)
# Format: biochemical
# recorded_conditions: PLA2 from rat platelets; CaCl2 (3 mM) in Tris-buffer (0.1 M, pH 7.4); 37 °C for 20 minutes
reported_metric: IC50 (µM)

Known results for compounds:
compound: Cc1c(O)c(Cc2c(C)c(C(=O)Oc3c(C)c(C)c(C(=O)Oc4c(C)c(C)c(C(=O)O)c(O)c4C)c(O)c3C)c(O)c(C)c2O)c(C)c(C(=O)Oc2c(C)c(C)c(C(=O)Oc3c(C)c(C)c(C(=O)O)c(O)c3C)c(O)c2C)c1O
unit_string: µM
reported_value: 0.95

compound: COc1ccc(Oc2ccc(OC)c(C(=O)Oc3c(C)c(C)c(C(=O)Oc4c(C)c(C)c(C(=O)O)c(OC)c4C)c(OC)c3C)c2)cc1C(=O)Oc1c(C)c(C)c(C(=O)Oc2c(C)c(C)c(C(=O)O)c(OC)c2C)c(OC)c1C
unit_string: µM
reported_value: 0.042

[I] COc1c(C)c(OC(=O)c2c(C)c(C)c(OC(=O)/C=C/C(=O)Oc3c(C)c(C)c(C(=O)Oc4c(C)c(C)c(C(=O)O)c(OC)c4C)c(OC)c3C)c(C)c2OC)c(C)c(C)c1C(=O)O
[II] COc1ccc(Sc2ccc(OC)c(C(=O)Oc3c(C)c(C)c(C(=O)O)c(OC)c3C)c2)cc1C(=O)Oc1c(C)c(C)c(C(=O)O)c(OC)c1C [Compound 110b]
Exercise: # argmax over IC50 for candidates I and II Selection: enter the item's label.
Solution: II
(II: 2.5 µM, I: 0.33 µM)

----------
# target_or_system: PLA2 (phospholipase A2) (Rattus norvegicus)
# Construct: from tissue; host or cells: rat platelets
# experiment_description: Phospholipase A2 inhibitory activity (release of free fatty acid from 14C-labelled phosphatidylethanolamine)
# Assay type: biochemical
# recorded_conditions: PLA2 from rat platelets; CaCl2 (3 mM) in Tris-buffer (0.1 M, pH 7.4); 37 °C for 20 minutes
reported_metric: IC50 (µM)

Known results for molecules:
molecule: COc1ccc([S+]([O-])c2ccc(OC)c(C(=O)Oc3c(C)c(C)c(C(=O)Oc4c(C)c(C)c(C(=O)O)c(OC)c4C)c(OC)c3C)c2)cc1C(=O)Oc1c(C)c(C)c(C(=O)Oc2c(C)c(C)c(C(=O)O)c(OC)c2C)c(OC)c1C [Compound 104c]
target_or_system: PLA2 (phospholipase A2) (Rattus norvegicus)
unit_string: µM
reported_value: 0.12
--
molecule: COc1c(C)c(OC(=O)c2c(C)c(C)c(OC(=O)CCC(=O)Oc3c(C)c(C)c(C(=O)Oc4c(C)c(C)c(C(=O)O)c(OC)c4C)c(OC)c3C)c(C)c2OC)c(C)c(C)c1C(=O)O
target_or_system: PLA2 (phospholipase A2) (Rattus norvegicus)
unit_string: µM
reported_value: 0.04
--
molecule: COc1ccc(Sc2ccc(OC)c(C(=O)Oc3c(C)c(C)c(C(=O)Oc4c(C)c(C)c(C(=O)O)c(OC)c4C)c(OC)c3C)c2)cc1C(=O)Oc1c(C)c(C)c(C(=O)Oc2c(C)c(C)c(C(=O)O)c(OC)c2C)c(OC)c1C [Compound 104a]
target_or_system: PLA2 (phospholipase A2) (Rattus norvegicus)
unit_string: µM
reported_value: 0.049

[a] COc1c(C)c(OC)c(C(=O)Oc2cc(C)c(C(=O)Oc3c(C)c(C)c(C(=O)Oc4c(C)c(C)c(C(=O)O)c(OC)c4C)c(OC)c3C)c(O)c2C)c(C)c1Oc1ccc(C[C@H](N)C(=O)O)cc1
[b] COc1c(C)c(OC(=O)c2c(C)c(C)c(OC(=O)c3cccc(C(=O)Oc4c(C)c(C)c(C(=O)Oc5c(C)c(C)c(C(=O)O)c(OC)c5C)c(OC)c4C)c3)c(C)c2OC)c(C)c(C)c1C(=O)O
Exercise: Of a and b , which shows the smaller IC50 value? Selection: enter the item's label.
Solution: a

----------
# target_or_system: PLA2 (phospholipase A2) (Rattus norvegicus, UniProt P14423)
# Construct: from tissue; host or cells: rat platelets
# experiment_description: Phospholipase A2 inhibitory activity (release of free fatty acid from 14C-labelled phosphatidylethanolamine)
# Format: biochemical
# recorded_conditions: PLA2 from rat platelets; CaCl2 (3 mM) in Tris-buffer (0.1 M, pH 7.4); 37 °C for 20 minutes
reported_metric: IC50 (µM)

compound: COc1c(C)c(OC)c(C(=O)Oc2c(C)c(C)c(C(=O)Oc3c(C)c(C)c(C(=O)O)c(OC)c3C)c(OC)c2C)c(C)c1Cc1c(C)c(C(=O)Oc2c(C)c(C)c(C(=O)Oc3c(C)c(C)c(C(=O)O)c(OC)c3C)c(OC)c2C)c(OC)c(C)c1OC
target_or_system: PLA2 (phospholipase A2) (Rattus norvegicus, UniProt P14423)
IC50 / µM: 0.13

[1] COc1cc(OC)c(C(=O)Oc2c(C)c(C)c(C(=O)Oc3c(C)c(C)c(C(=O)O)c(OC)c3C)c(OC)c2C)cc1Oc1cc(C)c(OC)c(C(=O)Oc2c(C)c(C)c(C(=O)Oc3c(C)c(C)c(C(=O)O)c(OC)c3C)c(OC)c2C)c1
[2] COc1ccc(Oc2ccc(OC)c(C(=O)Oc3c(C)c(C)c(C(=O)O)c(OC)c3C)c2)cc1C(=O)Oc1c(C)c(C)c(C(=O)O)c(OC)c1C [Compound 110a]
Exercise: # argmax over IC50 for candidates 1 and 2 Selection: enter the item's label.
Solution: 2
(2: 3.4 µM, 1: 0.035 µM)

----------
# target_or_system: PLA2 (phospholipase A2) (Rattus norvegicus, UniProt P14423)
# Construct: from tissue; host or cells: rat platelets
# experiment_description: Phospholipase A2 inhibitory activity (release of free fatty acid from 14C-labelled phosphatidylethanolamine)
# Format: biochemical
# recorded_conditions: PLA2 from rat platelets; CaCl2 (3 mM) in Tris-buffer (0.1 M, pH 7.4); 37 °C for 20 minutes
reported_metric: IC50 (µM)

compound: COc1c(C)c(OC(=O)c2c(C)c(C)c(OC(=O)c3cc(=O)cc(C(=O)Oc4c(C)c(C)c(C(=O)Oc5c(C)c(C)c(C(=O)O)c(OC)c5C)c(OC)c4C)o3)c(C)c2OC)c(C)c(C)c1C(=O)O [Compound 54]
reported_value: 0.88
--
compound: COc1ccc(Sc2ccc(OC)c(C(=O)Oc3c(C)c(C)c(C(=O)Oc4c(C)c(C)c(C(=O)O)c(OC)c4C)c(OC)c3C)c2)cc1C(=O)O [Compound 108]
reported_value: 2.1
--
compound: COc1c(C)c(OC)c(C(=O)O)c(C)c1Cc1c(C)c(C(=O)Oc2c(C)c(C)c(C(=O)Oc3c(C)c(C)c(C(=O)O)c(OC)c3C)c(OC)c2C)c(OC)c(C)c1OC [Compound 48]
reported_value: 3

[1] COc1c(C)c(OC)c(C(=O)Oc2c(C)c(O)cc(C)c2C(=O)Oc2c(C)c(C)c(C(=O)Oc3c(C)c(C)c(C(=O)O)c(OC)c3C)c(OC)c2C)c(C)c1Oc1ccc(C[C@H](N)C(=O)O)cc1 [Compound 77]
[2] CCCCOC(=O)c1cc(Sc2ccc(OC)c(C(=O)Oc3c(C)c(C)c(C(=O)O)c(OC)c3C)c2)ccc1OC [Compound 59]
Exercise: Of 1 and 2 , which shows the smaller IC50 value? Selection: enter the item's label.
Solution: 1
(1: 0.34 µM, 2: 1.45 µM)
